measurement-parameters: human, serum;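 further: human clinical chemistry: moderate when serum ALT or AST reaches 6× upper normal limit or alkaline phosphatase 1.7×, value counts indexed literature references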
experimental-endpoint: Hepatotoxicity (moderate)

1) O=C(Cc1cccs1)N[C@@H]1C(=O)N2C(C(=O)[O-])=C(C[n+]3ccccc3)CS[C@H]12; 1
2) CC(C)(N)C(=O)N[C@H](COCc1ccccc1)C(=O)N1CCC2(CC1)CN(S(C)(=O)=O)c1ccccc12; 1
3) CC(=O)c1ccc(S(=O)(=O)NC(=O)NC2CCCCC2)cc1 [ACETOHEXAMIDE]; 0
4) Nc1ccc(C(=O)[O-])cc1.[K+] [AMINOBENZOATE POTASSIUM]; 1
5) CCCCNc1cc(C(=O)O)cc(S(N)(=O)=O)c1Oc1ccccc1 [BUMETANIDE]; 3
6) CC(C)CCOc1ccc(NC(=S)Nc2ccc(OCCC(C)C)cc2)cc1 [TIOCARLIDE]; 1
7) OC(CCCN1CCCCC1)(c1ccccc1)c1ccccc1; 0
8) O=C1C(CC[S+]([O-])c2ccccc2)C(=O)N(c2ccccc2)N1c1ccccc1 (stereo not drawn); 0
9) CC(=O)c1ccc2c(c1)N(CC(C)N(C)C)c1ccccc1S2 (stereo not drawn); 0
10) O=C(O)COC(=O)Cc1ccccc1Nc1c(Cl)cccc1Cl; 5
11) O=C(CCCN1CCC(C(=O)c2ccc(F)cc2)CC1)c1ccc(F)cc1; 2
12) OCC(Br)(Br)Br; 1
13) OCc1cc(C(O)CNCCCCCCOCCCCc2ccccc2)ccc1O (stereo not drawn); 1

Reference source: ChEMBL document CHEMBL3137667
